Origin of measurements: paper PMC12388125

Test system: MES-induced seizures
procedure-text: animal or person
Assay type: in vivo, Kunming mice
measurement-conditions: 0.5 h; value (95% CI)
I'd be grateful if you could share measured ED50 (MES) for these entries.
Give bare numbers, in mg/kg.

Below, each entry is followed by its recorded ED50 (MES) result.
CCCCC(=O)Nc1ccc(-n2cncn2)cc1
17.3
Cc1cccc(C(=O)Nc2ccc(-n3cncn3)cc2)c1
9.1
O=C(Nc1ccc(-n2cncn2)cc1)c1ccc(F)cc1
13.7

State the recorded ED50 (MES) for every item in the following list.
1. O=C(Nc1ccc(-n2cncn2)cc1)c1cccc(F)c1
2. O=C(Nc1ccc(-n2cncn2)cc1)c1cccc(C(F)(F)F)c1
3. NC(=O)N1c2ccccc2C=Cc2ccccc21 [Carbamazepine, reference compound]

OUT:
[13.1, 21.9, 11.4]

* * *

System: mice
procedure-text: Rotarod (ROT) neurotoxicity test
measurement-conditions: 0.5 h; value (95% CI)
I'd be grateful if you could share measured TD50 (ROT) for these entries.

O=C(Nc1ccc(-n2cncn2)cc1)c1ccc(F)cc1 [Compound 6g]
429.1 (466.4–394.7) mg
Cc1cccc(C(=O)Nc2ccc(-n3cncn3)cc2)c1 [Compound 6l]
419.5 (456.1–385.9) mg
O=C(Nc1ccc(-n2cncn2)cc1)c1cccc(F)c1 [Compound 6f]
476.7 (518.3–438.5) mg
O=C(Nc1ccc(-n2cncn2)cc1)c1cccc(C(F)(F)F)c1 [Compound 6i]
381.4 (414.6–350.8) mg

Then this compound:
IN: Find the measured TD50 (ROT) of CCCCC(=O)Nc1ccc(-n2cncn2)cc1 [Compound 9c] with mice as test system.
OUT: 260.0 (282.7–239.2) mg

* * *

Tested on: mice
procedure-text: Rotarod (ROT) neurotoxicity test
measurement-conditions: 0.5 h after administration; doses 100, 300 mg/kg
I'd be grateful if you could share measured NT (neurotoxicity, ROT), dose at which at least one of three animals showed neurotoxicity for these entries.

State the recorded NT (neurotoxicity, ROT), dose at which at least one of three animals showed neurotoxicity for every item in the following list.
1. O=C(Nc1ccc(-n2cncn2)cc1)c1ccc(F)cc1 [Compound 6g]
2. O=C(Nc1ccc(-n2cncn2)cc1)c1ccc(Cl)cc1 [Compound 6d]
3. O=C(Nc1ccc(-n2cncn2)cc1)c1cccc(F)c1 [Compound 6f]

OUT:
>300 mg/kg
>300 mg/kg
>300 mg/kg
